- ASSAY SYSTEM: UniProt:Q9NQU5
- Sequence (Q9NQU5 whole entry, looked up): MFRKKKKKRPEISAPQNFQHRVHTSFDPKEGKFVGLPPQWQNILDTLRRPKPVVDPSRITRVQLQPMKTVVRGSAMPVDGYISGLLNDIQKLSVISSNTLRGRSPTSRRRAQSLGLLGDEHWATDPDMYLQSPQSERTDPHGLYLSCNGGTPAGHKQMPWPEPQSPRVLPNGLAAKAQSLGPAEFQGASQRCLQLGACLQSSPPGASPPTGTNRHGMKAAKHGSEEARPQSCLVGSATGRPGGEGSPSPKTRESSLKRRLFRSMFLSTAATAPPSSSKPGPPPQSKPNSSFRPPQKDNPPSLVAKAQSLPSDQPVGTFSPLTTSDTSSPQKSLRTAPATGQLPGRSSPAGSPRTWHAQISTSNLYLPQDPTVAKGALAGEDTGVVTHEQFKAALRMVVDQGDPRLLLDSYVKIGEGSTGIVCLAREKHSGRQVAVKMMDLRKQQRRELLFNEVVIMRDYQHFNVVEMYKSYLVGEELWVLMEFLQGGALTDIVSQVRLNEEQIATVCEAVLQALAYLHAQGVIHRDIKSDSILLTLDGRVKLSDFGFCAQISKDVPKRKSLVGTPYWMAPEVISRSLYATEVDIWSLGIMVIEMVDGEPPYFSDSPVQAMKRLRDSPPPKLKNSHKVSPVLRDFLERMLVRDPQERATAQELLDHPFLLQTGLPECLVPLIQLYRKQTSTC
- PROTOCOL: KINOMEscan competition binding
- MEASUREMENT CONTEXT: compound 10.0 µM
Each entry below carries its reported kinase still bound, per cent of control.

{"LINE NOTATION": "CNC(=O)c1cc(Oc2ccc(NC(=O)Nc3ccc(Cl)c(C(F)(F)F)c3)cc2)ccn1", "MEASUREMENT UNIT": "%", "kinase still bound, per cent of control": 91}
{"LINE NOTATION": "CCN(CC)CCCCNc1ncc2cc(-c3cc(OC)cc(OC)c3)c(NC(=O)NC(C)(C)C)nc2n1", "MEASUREMENT UNIT": "%", "kinase still bound, per cent of control": 100}
{"LINE NOTATION": "C=CC(=O)Nc1cc(-n2c(=O)ccc3cnc4ccc(-c5cn[nH]c5)cc4c32)ccc1C", "MEASUREMENT UNIT": "%", "kinase still bound, per cent of control": 96}
{"LINE NOTATION": "CNC(=O)c1ccc(Nc2cc(Nc3ccccc3S(=O)(=O)C(C)C)c3cc[nH]c3n2)nc1", "MEASUREMENT UNIT": "%", "kinase still bound, per cent of control": 100}
{"LINE NOTATION": "CS(=O)(=O)N1CCN(Cc2cc3nc(-c4cccc5[nH]ncc45)nc(N4CCOCC4)c3s2)CC1", "MEASUREMENT UNIT": "%", "kinase still bound, per cent of control": 100}
{"LINE NOTATION": "COc1cc2ncnc(-n3nc(-c4ccccn4)nc3N)c2cc1OC", "MEASUREMENT UNIT": "%", "kinase still bound, per cent of control": 55}
{"LINE NOTATION": "NC(=O)Nc1cc(-c2cccc(F)c2)sc1C(=O)N[C@@H]1CCCNC1", "MEASUREMENT UNIT": "%", "kinase still bound, per cent of control": 0.35}
{"LINE NOTATION": "COc1cc(N2CCN(C)CC2)ccc1Nc1ncc2c(n1)N(C)c1ccccc1C(=O)N2C", "MEASUREMENT UNIT": "%", "kinase still bound, per cent of control": 100}
{"LINE NOTATION": "COc1ccc(N(C(=O)Oc2c(C)cccc2C)c2ccnc(Nc3ccc(N4CCN(C)CC4)cc3)n2)c(OC)c1", "MEASUREMENT UNIT": "%", "kinase still bound, per cent of control": 71}
{"LINE NOTATION": "CN(C)C/C=C/C(=O)Nc1ccc(C(=O)Nc2cccc(Nc3nccc(-c4cccnc4)n3)c2)cc1", "MEASUREMENT UNIT": "%", "kinase still bound, per cent of control": 46}
{"LINE NOTATION": "CCN1CCN(C(=O)Cc2ccc(Nc3ncc(F)c(Nc4ccc(C(=O)Nc5ccccc5Cl)cc4)n3)cc2)CC1", "MEASUREMENT UNIT": "%", "kinase still bound, per cent of control": 65}

* * *

- ASSAY SYSTEM: NTRK2 (human) (UniProt Q16620)
- Sequence (Q16620 whole entry, looked up): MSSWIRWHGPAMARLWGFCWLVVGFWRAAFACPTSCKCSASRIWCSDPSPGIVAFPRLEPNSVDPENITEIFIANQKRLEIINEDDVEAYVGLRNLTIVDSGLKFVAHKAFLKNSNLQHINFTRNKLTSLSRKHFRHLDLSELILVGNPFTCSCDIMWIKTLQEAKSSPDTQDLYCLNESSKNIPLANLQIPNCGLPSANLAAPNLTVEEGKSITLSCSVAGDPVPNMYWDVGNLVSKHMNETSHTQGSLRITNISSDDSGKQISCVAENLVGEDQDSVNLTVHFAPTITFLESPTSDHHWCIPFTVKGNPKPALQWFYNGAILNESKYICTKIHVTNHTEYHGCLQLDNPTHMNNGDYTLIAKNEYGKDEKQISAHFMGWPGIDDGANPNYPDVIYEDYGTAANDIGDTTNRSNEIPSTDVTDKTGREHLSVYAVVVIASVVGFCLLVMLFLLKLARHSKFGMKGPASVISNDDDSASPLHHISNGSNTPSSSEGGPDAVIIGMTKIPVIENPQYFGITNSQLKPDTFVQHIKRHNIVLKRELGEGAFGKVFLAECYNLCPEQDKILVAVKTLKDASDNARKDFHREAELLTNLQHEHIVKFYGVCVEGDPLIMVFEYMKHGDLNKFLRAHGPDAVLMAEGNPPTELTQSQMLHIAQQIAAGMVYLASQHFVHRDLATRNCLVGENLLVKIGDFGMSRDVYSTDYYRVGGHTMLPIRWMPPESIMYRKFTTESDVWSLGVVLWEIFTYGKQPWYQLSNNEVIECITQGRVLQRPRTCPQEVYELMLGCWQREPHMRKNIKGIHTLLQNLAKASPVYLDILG
- PROTOCOL: KINOMEscan competition binding
- MEASUREMENT CONTEXT: compound 10.0 µM
// kinase still bound, per cent of control lookup, one value per entry
MEASUREMENT NAME: kinase still bound, per cent of control (%)

{"LINE NOTATION": "CCN1CCN(C(=O)Cc2ccc(Nc3ncc(F)c(Nc4ccc(C(=O)Nc5ccccc5Cl)cc4)n3)cc2)CC1", "MEASUREMENT NAME": "kinase still bound, per cent of control", "READOUT VALUE": 27}
{"LINE NOTATION": "C=CC(=O)Nc1cc(-n2c(=O)ccc3cnc4ccc(-c5cn[nH]c5)cc4c32)ccc1C", "MEASUREMENT NAME": "kinase still bound, per cent of control", "READOUT VALUE": 51}
{"LINE NOTATION": "Cc1n[nH]c2ccc(-c3cncc(OC[C@@H](N)Cc4c[nH]c5ccccc45)c3)cc12", "MEASUREMENT NAME": "kinase still bound, per cent of control", "READOUT VALUE": 100}
{"LINE NOTATION": "N#CCNC(=O)c1ccc(-c2ccnc(Nc3ccc(N4CCOCC4)cc3)n2)cc1", "MEASUREMENT NAME": "kinase still bound, per cent of control", "READOUT VALUE": 67}

* * *

- ASSAY SYSTEM: UniProt P49840
- Sequence (P49840 whole entry, looked up): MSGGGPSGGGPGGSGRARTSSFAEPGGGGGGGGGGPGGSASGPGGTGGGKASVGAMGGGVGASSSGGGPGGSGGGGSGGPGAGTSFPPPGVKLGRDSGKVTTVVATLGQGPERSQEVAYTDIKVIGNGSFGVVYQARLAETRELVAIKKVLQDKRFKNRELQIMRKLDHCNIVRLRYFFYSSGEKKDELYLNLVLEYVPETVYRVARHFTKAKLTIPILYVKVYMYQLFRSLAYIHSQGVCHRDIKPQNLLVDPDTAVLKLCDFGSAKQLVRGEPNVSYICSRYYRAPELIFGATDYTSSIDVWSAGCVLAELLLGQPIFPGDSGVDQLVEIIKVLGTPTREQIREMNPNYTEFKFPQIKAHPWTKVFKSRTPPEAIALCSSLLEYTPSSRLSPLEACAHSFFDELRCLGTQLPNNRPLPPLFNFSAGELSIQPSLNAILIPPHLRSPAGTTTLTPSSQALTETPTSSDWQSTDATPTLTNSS
- PROTOCOL: KINOMEscan competition binding
- MEASUREMENT CONTEXT: compound 10.0 µM

{"LINE NOTATION": "Cc1n[nH]c2ccc(-c3cncc(OC[C@@H](N)Cc4c[nH]c5ccccc45)c3)cc12", "kinase still bound, per cent of control, %": 1}
{"LINE NOTATION": "CNC(=O)c1cc(Oc2ccc(NC(=O)Nc3ccc(Cl)c(C(F)(F)F)c3)cc2)ccn1", "kinase still bound, per cent of control, %": 67}
{"LINE NOTATION": "CN(C)C/C=C/C(=O)Nc1ccc(C(=O)Nc2cccc(Nc3nccc(-c4cccnc4)n3)c2)cc1", "kinase still bound, per cent of control, %": 26}
{"LINE NOTATION": "N#CCNC(=O)c1ccc(-c2ccnc(Nc3ccc(N4CCOCC4)cc3)n2)cc1", "kinase still bound, per cent of control, %": 100}
{"LINE NOTATION": "O=C1NC(=O)/C(=C/c2ccc3nccc(-c4ccncc4)c3c2)S1", "kinase still bound, per cent of control, %": 71}

* * *

- ASSAY SYSTEM: STK17B (human) (UniProt O94768)
- Sequence (O94768 whole entry, looked up): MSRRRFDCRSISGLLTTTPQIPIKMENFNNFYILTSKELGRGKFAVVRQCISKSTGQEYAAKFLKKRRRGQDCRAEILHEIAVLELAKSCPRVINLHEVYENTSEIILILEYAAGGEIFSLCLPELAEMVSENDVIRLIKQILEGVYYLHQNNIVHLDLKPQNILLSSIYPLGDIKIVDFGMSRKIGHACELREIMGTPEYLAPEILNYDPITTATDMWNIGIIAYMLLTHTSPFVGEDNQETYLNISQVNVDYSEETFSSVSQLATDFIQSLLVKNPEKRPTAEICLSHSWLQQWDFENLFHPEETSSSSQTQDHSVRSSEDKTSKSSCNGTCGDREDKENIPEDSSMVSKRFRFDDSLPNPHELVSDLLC
- PROTOCOL: KINOMEscan competition binding
- MEASUREMENT CONTEXT: compound 10.0 µM
Threshold 20%. kinase still bound, per cent of control below it: Satisfied. kinase still bound, per cent of control at it or above: Not satisfied.

{"LINE NOTATION": "CNC(=O)c1cc(Oc2ccc(NC(=O)Nc3ccc(Cl)c(C(F)(F)F)c3)cc2)ccn1", "ASSAY SYSTEM": "STK17B (human) (UniProt O94768)", "ANSWER LABEL": "Not satisfied"}
{"LINE NOTATION": "CCN(CC)CCCCNc1ncc2cc(-c3cc(OC)cc(OC)c3)c(NC(=O)NC(C)(C)C)nc2n1", "ASSAY SYSTEM": "STK17B (human) (UniProt O94768)", "ANSWER LABEL": "Not satisfied"}
{"LINE NOTATION": "CNC(=O)c1ccc(Nc2cc(Nc3ccccc3S(=O)(=O)C(C)C)c3cc[nH]c3n2)nc1", "ASSAY SYSTEM": "STK17B (human) (UniProt O94768)", "ANSWER LABEL": "Not satisfied"}
{"LINE NOTATION": "COc1cc2ncnc(-n3nc(-c4ccccn4)nc3N)c2cc1OC", "ASSAY SYSTEM": "STK17B (human) (UniProt O94768)", "ANSWER LABEL": "Satisfied"}
{"LINE NOTATION": "COc1ccc(N(C(=O)Oc2c(C)cccc2C)c2ccnc(Nc3ccc(N4CCN(C)CC4)cc3)n2)c(OC)c1", "ASSAY SYSTEM": "STK17B (human) (UniProt O94768)", "ANSWER LABEL": "Not satisfied"}
{"LINE NOTATION": "CN(C)C/C=C/C(=O)Nc1ccc(C(=O)Nc2cccc(Nc3nccc(-c4cccnc4)n3)c2)cc1", "ASSAY SYSTEM": "STK17B (human) (UniProt O94768)", "ANSWER LABEL": "Satisfied"}
{"LINE NOTATION": "COc1cc(C(=O)N2CCC(N3CCN(C)CC3)CC2)ccc1Nc1ncc2c(n1)N(C)c1ccccc1C(=O)N2C", "ASSAY SYSTEM": "STK17B (human) (UniProt O94768)", "ANSWER LABEL": "Not satisfied"}
{"LINE NOTATION": "CCN1CCN(C(=O)Cc2ccc(Nc3ncc(F)c(Nc4ccc(C(=O)Nc5ccccc5Cl)cc4)n3)cc2)CC1", "ASSAY SYSTEM": "STK17B (human) (UniProt O94768)", "ANSWER LABEL": "Satisfied"}
{"LINE NOTATION": "CCN(CC)CCCCNc1ncc2c(n1)N(C)C(=O)N(c1c(Cl)c(OC)cc(OC)c1Cl)C2", "ASSAY SYSTEM": "STK17B (human) (UniProt O94768)", "ANSWER LABEL": "Not satisfied"}
{"LINE NOTATION": "NC(=O)Nc1cc(-c2cccc(F)c2)sc1C(=O)N[C@@H]1CCCNC1", "ASSAY SYSTEM": "STK17B (human) (UniProt O94768)", "ANSWER LABEL": "Satisfied"}
{"LINE NOTATION": "O=c1cc(N2CCOCC2)oc2c(-c3cccc4c3sc3ccccc34)cccc12", "ASSAY SYSTEM": "STK17B (human) (UniProt O94768)", "ANSWER LABEL": "Not satisfied"}
